Tested on: Peritoneal macrophage
TEST: Antiinflammatory activity in C57BL/6 mouse primary peritoneal macrophages assessed as inhibition of LPS-induced IL-6 production at 10 uM preincubated for 30 mins followed by LPS stimulation and measured after 24 hrs by sandwich ELISA
Assay type: functional, cell-based
Activity calls are given as the source filed them. The rule behind the calls is not given here.

| TEST SMILES | inhibition |
| --- | --- |
| O=C(Nc1ccc2c(c1)CCC2)c1cccc(N2CCCC2)c1 | Active |
| O=C(/C=C/c1cccc(OC(F)(F)F)c1)Nc1ccc2c(c1)CCC2 | Active |
| COc1ccc(OC)c(/C=C/C(=O)Nc2ccc3c(c2)CCC3)c1 | Active |
